Measured Kp brain/plasma values are reported for all entries that follow.
# Protocol Details: Three time point assay for plasma, brain and testes distribution after oral dosing
# Assay type: in vivo, rat
# Condition Details: rat, oral dosing, time point 2 h
Just the number, please, no unit after it.

Compound | Readout | Obs Value
Cc1ccc(-c2noc(C3(O)CC(F)(F)C3)n2)cc1NC(=O)c1cnc2ccccn12 | Kp brain/plasma | 0.06
Cc1ccc(-c2noc(C3(C)CC(F)(F)CN3)n2)cc1NC(=O)c1cnc2ccccn12 (racemic) | Kp brain/plasma | 0.42
Cc1ccc(-c2noc([C@H]3C[C@@H]3F)n2)cc1NC(=O)c1cnc2cc(N3CCC3)ccn12 | Kp brain/plasma | 0.18

Here is another compound to look at.
Per the records, this compound ( Cc1ccc(-c2noc(C3CCS(=O)(=O)C3)n2)cc1NC(=O)c1cnc2ccccn12 (racemic) ) has Kp brain/plasma equal to 0.03
